Data provenance: patent US6255497A

- TARGET_SYSTEM: ALDH-II (Homo sapiens)
- Sequence (P00352 whole entry): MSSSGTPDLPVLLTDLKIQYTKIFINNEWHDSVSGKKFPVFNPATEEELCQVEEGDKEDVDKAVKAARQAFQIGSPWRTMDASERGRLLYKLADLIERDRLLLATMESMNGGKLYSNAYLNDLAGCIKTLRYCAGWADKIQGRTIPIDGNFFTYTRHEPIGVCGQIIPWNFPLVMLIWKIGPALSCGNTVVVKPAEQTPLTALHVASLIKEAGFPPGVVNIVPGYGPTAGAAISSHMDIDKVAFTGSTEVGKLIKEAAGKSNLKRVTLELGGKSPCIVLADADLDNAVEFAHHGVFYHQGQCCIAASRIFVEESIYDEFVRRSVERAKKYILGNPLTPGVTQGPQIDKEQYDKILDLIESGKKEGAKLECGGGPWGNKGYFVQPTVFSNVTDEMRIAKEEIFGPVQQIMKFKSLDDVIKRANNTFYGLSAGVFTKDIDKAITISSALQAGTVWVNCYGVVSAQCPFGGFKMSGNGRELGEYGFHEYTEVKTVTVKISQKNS
- PROTOCOL_SUMMARY: Competitive inhibition of ALDH-II with acetaldehyde as substrate
- Format: biochemical
- Parameters: A liver sample (50 g wet weight) with the usual Caucasian ALDH phenotype (both ALDH-I and ALDH-II present); from tissue; host or cells: human liver (autopsy), purified by CM-52, AMP-agarose and DEAE HPLC
- CONDITIONS_USED: acetaldehyde as substrate, competitive; read-out: Ki, ALDH-II
pKi: −log10 of the molar value.
QUANTITY_NAME: pKi

The cases that follow already have their pKi on record.
CCOc1ccc2c(=O)c(-c3ccc(O)cc3)coc2c1
6.36
O=C(O)CCCCCCOc1ccc2c(=O)c(-c3ccc(O)cc3)coc2c1
6.67

(P) O=C(O)CCCCCOc1ccc2c(=O)c(-c3ccc(O)cc3)coc2c1
(Q) O=C(O)CCCCCCCCCCOc1ccc2c(=O)c(-c3ccc(O)cc3)coc2c1
Q) Please let me know which one, P or Q , has a lower measured pKi value. Your answer should be the label of the entry you select.
A) P
(P: 6.35, Q: 6.73)
